Sourced from the RNAGym collection of RNA variant scans (doi:10.1093/molbev/msab373)

B1: Azoarcus group I ribozyme (parent)
chain: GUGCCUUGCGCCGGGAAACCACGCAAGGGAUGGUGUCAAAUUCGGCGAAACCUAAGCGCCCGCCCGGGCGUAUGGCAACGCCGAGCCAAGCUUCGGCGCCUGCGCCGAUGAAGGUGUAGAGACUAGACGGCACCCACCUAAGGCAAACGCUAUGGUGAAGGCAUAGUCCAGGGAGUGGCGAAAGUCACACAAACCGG

variants of: B1; assay: reverse-splicing fitness (ratio to wild type); higher = more active; in vitro selection; Mg2+ level not given
measurement label: reverse-splicing fitness

1. C82U A111G A120U A145G C169A U176G
0.00159
2. A145U C150A C169G
0.0369
3. C82A A145G C150A C169G U176C
0.0281
4. C82U A111C A120G A145U C169G U176A
0.00938
5. C82G A111U A120G A145C C169A
0.00794
6. C82U A111U A145C C150A U176G
0.00625
7. A111G A120G A145G C169G U176C
0.134
8. A111U A120U A145G C169U U176A
0.0114
9. C82U A111G A120U A145G C150G C169U U176G
0.00292
10. C82A A111C A120G A145U C150U C169G U176C
0.014
11. C82U A120U C169U U176G
0.00164
12. C82A A111C C150A C169U
0.0131
13. C82G A145G C150U C169G
0.012
14. A111C A120G C169G U176G
0.00449
15. A111G A120C
0.806
16. A111U A120C A145C C169A
0.00906
17. C82G A120U A145U C150G C169A
0.00271
18. C82G A111U A120C A145G C150A U176G
0.0103
19. C82U A111G A120C A145U C150U C169A U176A
0.0106
20. A111C A120C A145C C150A C169U
0.0161
21. C82U A111G A120U A145C C150A C169A
0.00199
22. C82U A111G A120G A145G C150A U176C
0.0196
